Entries annotated with measured AC50
- Test system: MYB mRNA
- test.method.notes: RT-qPCR splicing assay, MYB canonical junction (CJ) and alternative junction (AJ) mRNA
- Format: cell-based, human
- measurement.conditions: Homo sapiens; increase in MYB alternative junction (AJ) mRNA, RT-qPCR; read-out: MYB AJ AC50
parameter.measured: AC50

In [3]: df
Out[3]:
                                   molecule  parameter_measured          observed
0  Cc1cn2nc(-c3cc(F)c4c(=O)n(C5CCNCC5)cnc4c3)cc(C)c2n1                AC50          < 100 nM
1  Cc1cn2nc(-c3cc4ccn([C@@H]5CCNC5)c(=O)c4cc3O)cc(C)c2n1                AC50    100 to 1000 nM
2  Cc1c(O)c(-c2ncc3c(=O)n(C4C[C@H](C)N[C@@H](C)C4)ccc3n2)cc2cn(C)nc12 (stereo partly shown)                AC50          < 100 nM
3  Cc1cn2nc(-c3ccc4c(c3)CCN(C3CCNC(C)(C)C3)C4=O)cc(C)c2n1 (stereo not shown)                AC50  1000 to 10000 nM

====

Entries annotated with measured IC50
- Test system: HTT mRNA
- test.method.notes: RT-qPCR splicing assay, HTT canonical junction (CJ) and alternative junction (AJ) mRNA
- Type: cell-based, human
- measurement.conditions: Homo sapiens, decrease in HTT canonical junction (CJ) mRNA, RT-qPCR; read-out: HTT CJ IC50
parameter.measured: IC50

>>> print(df.to_string())
                                   compound     observed
0  CCOC(=O)c1cc(-c2ccc3c(=O)n(C4CCNCC4)ccc3c2)nn2cc(C)nc12   1 to 10 µM
1  CNC12CCC(n3ccc4nc(-c5cc6cn(C)nc6c(C)c5O)ccc4c3=O)(CC1)C2  0.1 to 1 µM
2  CN1CCN(c2ccc3nc(-c4ccc5nn(C)cc5c4)[nH]c(=O)c3c2)CC1      > 10 µM
3  Cc1cc(-c2ccc3c(=O)n(C4CCNCC4)cnc3c2F)cc2cn(C)nc12   1 to 10 µM
4  Cc1c(O)c(-c2ncc3c(=O)n([C@H]4CC[C@@H](N(C)C)CC4)ccc3n2)cc2cn(C)nc12   1 to 10 µM
5  Cc1cn2nc(-c3cc(F)c4c(=O)n(C5CCNC6(CC6)C5)cnc4c3)cc(C)c2n1 (centres unmarked)     < 0.1 µM
6  Cc1cc(-c2cc(O)c3c(=O)n(C4CCNC5(CC5)C4)ncc3c2)cc2cn(C)nc12 (centres unmarked)  0.1 to 1 µM
7  Cc1cc(-c2nc3ccc(N(C)C4CCNCC4)cc3c(=O)[nH]2)cc2cn(C)nc12      > 10 µM

====

- Tested on: Target C
- test.method.notes: RT-qPCR splicing assay panel, Target C canonical junction (CJ) mRNA
- Assay type: cell-based, human
- measurement.conditions: Homo sapiens; Table 5 panel; canonical junction qPCR; compound concentration having 50% response in CJ decrease; read-out: Target C IC50 (decrease in CJ mRNA levels)
pIC50: −log10 of the molar value.
parameter.measured: pIC50

>>> df
                                    molecule  target_of_assay  parameter_measured      observed
 0  Cc1ncc(-c2ccc3c(=O)n(C4CCNCC4)cnc3c2)cn1         Target C               pIC50  5.00 to 6.00
 1  Cc1cn2cc(-c3cc(F)c4c(=O)n(C5CCNCC5)cnc4c3)cc(F)c2n1         Target C               pIC50        > 7.00
 2  CCN1CCC(n2ccc3cc(-c4cc(C)c5nc(C)cn5n4)ccc3c2=O)CC1         Target C               pIC50  6.00 to 7.00
 3  Cc1cn2nc(-c3cc(F)c4c(=O)n(C5CCNC6(CC6)C5)cnc4c3)cc(C)c2n1 (stereo not drawn)         Target C               pIC50        > 7.00
 4  Cc1cn2cc(-n3ccc4cc(N5C[C@@H](C)N[C@@H](C)C5)ccc4c3=O)nc(C)c2n1         Target C               pIC50        < 5.00
 5  Cc1cn2cc(-c3cc(F)c4c(=O)n(C5CCNC6(CC6)C5)ccc4c3)cc(C)c2n1 (stereo not drawn)         Target C               pIC50  6.00 to 7.00
 6  Cc1cn2cc(-c3ccc4c(=O)n(C5CCNCC5)cnc4c3)cc(Cl)c2n1         Target C               pIC50  6.00 to 7.00
 7  Cn1cc2cc(-n3cnc4cc(C5=CC6CCC(C5)N6)ccc4c3=O)ccc2n1 (stereo not drawn)         Target C               pIC50        < 5.00
 8  Cc1cn2cc(-c3cc(F)c4c(=O)n([C@H]5CCNC5)ccc4c3)cc(F)c2n1 (single isomer, unassigned)         Target C               pIC50        < 5.00
 9  Cc1cc(-c2cc(F)c3c(=O)n(C4CCNC5(CC5)C4)cnc3c2)nc2cn(C)nc12 (stereo not drawn)         Target C               pIC50  6.00 to 7.00
10  Cc1cn2cc(-c3cc(F)c4c(=O)n(C5CNCCC5=O)cnc4c3)cc(F)c2n1 (stereo not drawn)         Target C               pIC50        < 5.00
11  Cc1cn2nc(-c3cc(Cl)c4c(=O)n(C5CCNCC5)ccc4c3)cc(C)c2n1         Target C               pIC50        > 7.00
12  Cc1cn2cc(-c3cc(F)c4c(=O)n(C5CCNC6(CC6)C5)ccc4c3)c(O)c(C)c2n1 (stereo not drawn)         Target C               pIC50        < 5.00
13  CCc1cn(C2CCNCC2)c(=O)c2c(F)cc(-c3cc(F)c4nc(C)cn4c3)cc12         Target C               pIC50  5.00 to 6.00
14  Cn1cc2cc(-c3cc(F)c4c(=O)n(C5CCNC6(CC6)C5)ccc4c3)c(O)cc2n1 (stereo not drawn)         Target C               pIC50        < 5.00
15  Cc1nc2c(F)cc(-c3ccc4c(c3)CCN(C3CCNCC3)C4=O)cc2s1         Target C               pIC50        < 5.00
16     O=c1c2ccc(-c3cn[nH]c3)cc2ncn1C1CCNCC1         Target C               pIC50        < 5.00
17  Cc1cn2cc(-c3ccc4c(=O)n(C5CCNCC5)ncc4c3)cc(Cl)c2n1         Target C               pIC50        < 5.00
18  Cc1cn2cc(-c3cc(F)c4c(=O)n([C@@H]5C[C@@H](C)N[C@@H](C)C5)ccc4c3)cc(F)c2n1         Target C               pIC50  5.00 to 6.00
19  Cc1cn2cc(-c3ccc4c(c3)CCN(C3CCNCC3)C4=O)cc(F)c2n1         Target C               pIC50  5.00 to 6.00
20  Cc1cn2cc(-c3cc(F)c4c(=O)n(C5CCNCC5)ccc4c3)cc(F)c2n1         Target C               pIC50  6.00 to 7.00
21  Cc1cn2cc(-c3ccc4c(=O)n(C5CCN(C)CC5)cnc4c3)nc2c(C)n1         Target C               pIC50  5.00 to 6.00
22  Cc1cn2cc(-n3cnc4cc(N5CCNCC5)ccc4c3=O)cc(F)c2n1         Target C               pIC50  6.00 to 7.00
23  Cc1cn2nc(-c3ccc4nc(N5CCNC6(CC6)C5)[nH]c(=O)c4c3)cc(C)c2n1         Target C               pIC50  6.00 to 7.00
24  CN1CCC(Nc2ccc3c(=O)n(-c4ccc5nn(C)cc5c4)cnc3c2)CC1         Target C               pIC50        < 5.00
25  Cc1cn2nc(-c3cc(N)c4c(=O)n([C@H]5CCNC5)ccc4c3)cc(C)c2n1         Target C               pIC50        < 5.00
26  Cc1cc(-c2ccc3c(=O)n(C4CCNCC4)cnc3c2F)cc2cn(C)nc12         Target C               pIC50        < 5.00
27  Cc1cn2cc(-c3ccc4nc(N5CCNC6(CC6)C5)[nH]c(=O)c4c3)cc(F)c2n1         Target C               pIC50        < 5.00
28  Cc1cn2nc(-c3ccc4c(=O)n(C5CCNC(C)(C)C5)ncc4c3)cc(C)c2n1 (stereo not drawn)         Target C               pIC50  6.00 to 7.00
29  Cc1cn2nc(-c3ccc4c(=O)n(C5CCNCC5)ccc4c3)cc(C(N)=O)c2n1         Target C               pIC50        < 5.00
30  Cn1cc2cc(-c3cc(F)c4c(=O)n(C5CCNCC5)cnc4c3)c(F)cc2n1         Target C               pIC50  5.00 to 6.00
31  Cc1cn2nc(-c3cc(F)c4c(=O)n(C5CCNCC5)cnc4c3)cc2c(C)n1         Target C               pIC50  6.00 to 7.00
32  Cn1cc2cc(-c3ncc4c(=O)n(C5CCNCC5)ccc4n3)c(O)cc2n1         Target C               pIC50  5.00 to 6.00
